- Tested on: LC4-1 (B-Lymphoblastic Leukemia)
- protocol_description: combination Emax (second highest fraction inhibited in the dose matrix, 72 h); higher = more inhibition; extreme values may be limits of the assay
quantity_name: combination Emax

# return recorded combination Emax for entry Cc1c2c(nn1C)CSCc1cc(n(C)n1)CSc1cc(c3ccccc3c1)OCCCc1c(C(=O)O)n(C)c3c-2c(Cl)ccc13 [AZD5991] + Nc1ccn([C@@H]2O[C@H](CO)[C@@H](O)C2(F)F)c(=O)n1 [Gemcitabine] (first compound max 1 µM, 7x7, partner max 0.3 µM)
0.975

***
# return recorded combination Emax for entry O=C(c1cc(Cc2n[nH]c(=O)c3ccccc23)ccc1F)N1CCN(C(=O)C2CC2)CC1 [Olaparib] + Cc1c2c(nn1C)CSCc1cc(n(C)n1)CSc1cc(c3ccccc3c1)OCCCc1c(C(=O)O)n(C)c3c-2c(Cl)ccc13 [AZD5991] (first compound max 10 µM, 7x7, partner max 1 µM)
0.955

# return recorded combination Emax for entry C[C@@H](Oc1cc(-c2cnn(C3CCNCC3)c2)cnc1N)c1c(Cl)ccc(F)c1Cl [Crizotinib] + CC1=C(C(=CC=C1)Cl)NC(=O)C2=CN=C(S2)NC3=CC(=NC(=N3)C)N4CCN(CC4)CCO [Dasatinib] (first compound max 10 µM, 7x7, partner max 2 µM)
0.866

# return recorded combination Emax for entry COc1cc2ncnc(Nc3ccc(F)c(Cl)c3)c2cc1OCCCN1CCOCC1 [Gefitinib] + CC(C)n1c(=O)n(C)c2cnc3cc(F)c(-c4ccc(OCCCN5CCCCC5)nc4)cc3c21 [AZD1390] (first compound max 10 µM, 7x7, partner max 0.3 µM)
0.221

# return recorded combination Emax for entry COc1nnc2ccc(N3CCC(c4ccc(OCCN5CCN(C)C(=O)[C@H]5C)cc4)CC3)nn12 [AZD5153] + Cc1c2c(nn1C)CSCc1cc(n(C)n1)CSc1cc(c3ccccc3c1)OCCCc1c(C(=O)O)n(C)c3c-2c(Cl)ccc13 [AZD5991] (first compound max 1 µM, 7x7, partner max 1 µM)
1

# return recorded combination Emax for entry CN(C)CCCOc1ccc(-c2ccc3ncc4c(c3c2)n(C2CCOCC2)c(=O)n4C)cn1 [AZD0156] + O=C(c1cc(Cc2n[nH]c(=O)c3ccccc23)ccc1F)N1CCN(C(=O)C2CC2)CC1 [Olaparib] (first compound max 3 µM, partner max 3 µM)
0.673

# return recorded combination Emax for entry COc1nnc2ccc(N3CCC(c4ccc(OCCN5CCN(C)C(=O)[C@H]5C)cc4)CC3)nn12 [AZD5153] + Cn1cnc2c(F)c(Nc3ccc(Br)cc3Cl)c(C(=O)NOCCO)cc21 [Selumetinib] (first compound max 1 µM, 7x7, partner max 10 µM)
0.975

# return recorded combination Emax for entry Cc1cc2ncnn2cc1Nc1ncc2c(n1)n(C1CCOCC1)c(=O)n2C [AZD7648] + O=C(c1cc(Cc2n[nH]c(=O)c3ccccc23)ccc1F)N1CCN(C(=O)C2CC2)CC1 [Olaparib] (first compound max 10 µM, 7x7, partner max 10 µM)
0.442

# return recorded combination Emax for entry CN(CCO)CC[C@H](CSc1ccccc1)Nc1ccc(S(=O)(=O)NC(=O)c2ccc(N3CCC([C@@H](O)c4ccccc4-c4ccc(Cl)cc4)CC3)cc2)cc1S(=O)(=O)C(F)(F)F [AZD4320] + CCN(CCO)CCCOc1ccc2c(Nc3cc(CC(=O)Nc4cccc(F)c4)[nH]n3)ncnc2c1 [AZD2811] (first compound max 1 µM, 7x7, partner max 1 µM)
1

# return recorded combination Emax for entry Cc1c2c(nn1C)CSCc1cc(n(C)n1)CSc1cc(c3ccccc3c1)OCCCc1c(C(=O)O)n(C)c3c-2c(Cl)ccc13 [AZD5991] + C=CCn1c(=O)c2cnc(Nc3ccc(N4CCN(C)CC4)cc3)nc2n1-c1cccc(C(C)(C)O)n1 [AZD1775] (first compound max 1 µM, partner max 1 µM)
0.986
